test system: INS-1E rat beta cells, no cytokines, CellTiter-Glo ATP, 48 h; assay: cytokine-free beta-cell viability effect – INS-1E rat cells, ATP luminescence, cherry pick, counter-screen for beta-cell apoptosis protection project, dose response (AID 463229)
For each of the molecules below, state its AC50.

QUERY: Identify measured AC50 associated with CCCCc1ccc(N/C(N)=N/c2nc(C)cc(C)n2)cc1
RESULT: 5.12 µM

QUERY: Identify measured AC50 associated with CNC(=O)c1cc(Oc2ccc(NC(=O)Nc3ccc(Cl)c(C(F)(F)F)c3)cc2)ccn1
RESULT: 7.39 µM

QUERY: Identify measured AC50 associated with Cc1ccc(NC(=O)c2ccc([N+](=O)[O-])o2)cc1S(=O)(=O)N1CCOCC1
RESULT: 14.3 µM

QUERY: Identify measured AC50 associated with CCCCCCSc1cc(-c2nc3ccc(C)cn3c2NCc2ccccc2)ccc1OC
RESULT: 6.2 µM

QUERY: Identify measured AC50 associated with O=C1C(C2=NC(c3ccccn3)C3C(=O)N(c4ccc(OC(F)(F)F)cc4)C(=O)C23)=C(O)c2ccccc21 (stereo unspecified)
RESULT: 5.94 µM

QUERY: Identify measured AC50 associated with Cc1nc2ccccc2nc1N/N=C/c1ccc(O)cc1O
RESULT: 3.6 µM

QUERY: Identify measured AC50 associated with Nc1nonc1-n1nnc(C(=O)N/N=C/c2ccccc2O)c1CN1CCCC1
RESULT: 22.9 µM

QUERY: Identify measured AC50 associated with COc1cc(C(=O)NC(=S)NNC(=O)c2cnccn2)cc(OC)c1OC
RESULT: 7.66 µM

QUERY: Identify measured AC50 associated with COc1cccc(CN(C)C(=O)c2cc(COc3ccc4ncccc4c3)on2)c1
RESULT: 6.86 µM

QUERY: Identify measured AC50 associated with O=S(=O)(NCc1ccncc1)c1ccc(Br)s1
RESULT: 4.25 µM

QUERY: Identify measured AC50 associated with O=C(N/N=C/c1ccc(O)cc1O)/C(=C/c1ccccc1)CCO
RESULT: 6.54 µM

QUERY: Identify measured AC50 associated with COc1ccc(CNCCC(c2ccc(OC(C)C)cc2)C(C)C)cc1OC (stereo unspecified)
RESULT: 15 µM

QUERY: Identify measured AC50 associated with COc1ccccc1NC(=O)CN(c1ccc(C23CC4CC(CC(C4)C2)C3)cc1)S(C)(=O)=O
RESULT: 5.11 µM

QUERY: Identify measured AC50 associated with CCOC(=O)C1CCN(C(=O)c2c(C)oc3c2C(=O)c2ccccc2C3=O)CC1
RESULT: 17.4 µM

QUERY: Identify measured AC50 associated with CCC(O)C1CCN(C(=O)c2cc(COc3ccc4ncccc4c3)on2)CC1 (stereo unspecified)
RESULT: 5.52 µM

QUERY: Identify measured AC50 associated with Cc1ccc(C)c(S(=O)(=O)N2CCN(c3ncnc4sccc34)CC2)c1
RESULT: 4.53 µM

QUERY: Identify measured AC50 associated with O=C(NCC(c1ccco1)N1CCCC1)c1ccc(Cl)c(S(=O)(=O)N2CCc3ccccc32)c1 (stereo unspecified)
RESULT: 7.47 µM

QUERY: Identify measured AC50 associated with COc1ccc(S(=O)(=O)/N=C2\C=C(Nc3ccc(O)cc3)C(=O)c3ccccc32)cc1
RESULT: 1.65 µM

QUERY: Identify measured AC50 associated with COC(=O)C1=C(C)N(Cc2ccccc2)C(=NCc2cccc(C(F)(F)F)c2)N[C@H]1c1cccc(C(F)(F)F)c1
RESULT: 7.34 µM

QUERY: Identify measured AC50 associated with C#CC[N+](C)(C)CCCCCCCCCCCC
RESULT: 6.1 µM

QUERY: Identify measured AC50 associated with O=C(Nc1nc(-c2ccccn2)cs1)c1ccc(Br)s1
RESULT: 6.75 µM
